Data provenance is the supplement of paper PMC4466140.

biological target: SpHse1; assay: SPOT peptide array binding signal intensity (averaged, normalized) (arbitrary units (background-subtracted, floor 0; scale differs between SH3 domains)); higher = stronger binding of the SH3 domain to the peptide
attribute_measured: SPOT peptide array binding signal intensity
Provide a numeric answer; units are not to be included.

Example results:
VDFTLPPPPPPPGLD ... 11
APKREAPKPPANTSP ... 3.5
QQEQNTPPLPPKPKS ... 28.2
KKEKKPPKIPKKVYT ... 1.5
AATTSTPPLPRRRAT ... 8.25
HRRRRVFSIPSLKSI ... 997
LEFRAILFIPKRAPF ... 1270
IRMPSNPALPKKLLN ... 294

For the binder RSKRLFPVRPMATAH , what SPOT peptide array binding signal intensity is on record?
350

For the binder KNRKNLPTIPIRLSG , what SPOT peptide array binding signal intensity is on record?
166

For the binder RSVKRPRRAPRPVVS , what SPOT peptide array binding signal intensity is on record?
234

For the binder NPNRRAPRRPLSTQH , what SPOT peptide array binding signal intensity is on record?
1390

For the binder RKNRAPPQRPRFNRD , what SPOT peptide array binding signal intensity is on record?
367

For the binder GKLKHIPRRPYEIER , what SPOT peptide array binding signal intensity is on record?
21
